Origin of measurements: patent US7022699B2

Measured melting point accompanies every entry in the list below.
MEASURE: melting point

molecule="Cc1cc(C(=O)N2Cc3cccn3Cc3ccccc32)ccc1C1=CCC2CCC1C2 (stereo not drawn)" readout_value="168 to 169 °C"
molecule=CC1(C)C=C(c2ccc(C(=O)N3Cc4cccn4Cc4ccccc43)cc2)CC(C)(C)C1 readout_value="142 to 143 °C"
molecule="Cc1cc(C(=O)N2Cc3cccn3Cc3ccccc32)ccc1C1=CCCCC1C (stereo not drawn)" readout_value="132 to 133 °C"
molecule="Cc1cc(C(=O)N2Cc3cccn3Cc3ccccc32)ccc1C1=CCCCC1C(C)(C)C (stereo not drawn)" readout_value="127 to 129 °C"
molecule=O=C1C=C(c2ccc(C(=O)N3Cc4cccn4Cc4ccccc43)cc2)CCC1 readout_value="205 to 207 °C"
molecule=CC1=C(c2ccc(C(=O)N3Cc4cccn4Cc4ccccc43)cc2)CCCC1=O readout_value="95 to 97 °C"
molecule=O=C(c1ccc(C2=CCCc3ccccc32)cc1Cl)N1Cc2cccn2Cc2ccccc21 readout_value="174 to 176 °C"
molecule=Cc1cc(C(=O)N2Cc3cccn3Cc3ccccc32)ccc1C1=CCCCC1(C)C readout_value="131 °C"
molecule=COc1cc(C2=CCCc3ccccc32)c(Cl)cc1C(=O)N1Cc2cccn2Cc2ccccc21 readout_value="209 to 210 °C"
molecule=CO[C@@H]1CCCC(c2ccc(C(=O)N3Cc4cccn4Cc4ccccc43)cc2C)=C1C readout_value="127 to 128 °C"
molecule="CC1(C)C2CC=C(c3ccc(C(=O)N4Cc5cccn5Cc5ccccc54)cc3)C1C2 (stereo not drawn)" readout_value="118 to 119 °C"
molecule=CC1(C)CCCC=C1c1ccc(C(=O)N2Cc3cccn3Cc3ccccc32)cc1 readout_value="118 °C"
molecule=Cc1cc(C(=O)N2Cc3cccn3Cc3ccccc32)ccc1C1=CC(=O)CCC1 readout_value="176 to 177 °C"
molecule=O=C(c1ccc(C2=CCCCC2)cc1)N1Cc2cccn2Cc2ccccc21 readout_value="156 °C"
molecule="CC1=C(c2ccc(C(=O)N3Cc4cccn4Cc4ccccc43)cc2)C(C)CCC1 (stereo not drawn)" readout_value="153 to 154 °C"
molecule="CC1CCCC=C1c1ccc(C(=O)N2Cc3cccn3Cc3ccccc32)cc1 (stereo not drawn)" readout_value="108 to 109 °C"
molecule=COc1cc(C2=CCCCC2)c(Cl)cc1C(=O)N1Cc2cccn2Cc2ccccc21 readout_value="92 to 98 °C"
molecule=Cc1cc(C(=O)N2Cc3cccn3Cc3ccccc32)ccc1C1=CCCc2ccccc21 readout_value="108 °C"
molecule="Cc1cc(C(=O)N2Cc3cccn3Cc3ccccc32)ccc1C1=CCC2CC1C2(C)C (stereo not drawn)" readout_value="187 °C"
molecule=O=C(c1ccc(C2=CCCc3ccccc32)cc1)N1Cc2cccn2Cc2ccccc21 readout_value="166 °C"
molecule="CC1=C(c2ccc(C(=O)N3Cc4cccn4Cc4ccccc43)cc2C)C(C)CCC1 (stereo not drawn)" readout_value="133 to 135 °C"

---

Hi! I'm sharing some IC50 results obtained with human vasopressin V1a receptor subtype (Homo sapiens, UniProt P37288).
Sequence (P37288 whole entry): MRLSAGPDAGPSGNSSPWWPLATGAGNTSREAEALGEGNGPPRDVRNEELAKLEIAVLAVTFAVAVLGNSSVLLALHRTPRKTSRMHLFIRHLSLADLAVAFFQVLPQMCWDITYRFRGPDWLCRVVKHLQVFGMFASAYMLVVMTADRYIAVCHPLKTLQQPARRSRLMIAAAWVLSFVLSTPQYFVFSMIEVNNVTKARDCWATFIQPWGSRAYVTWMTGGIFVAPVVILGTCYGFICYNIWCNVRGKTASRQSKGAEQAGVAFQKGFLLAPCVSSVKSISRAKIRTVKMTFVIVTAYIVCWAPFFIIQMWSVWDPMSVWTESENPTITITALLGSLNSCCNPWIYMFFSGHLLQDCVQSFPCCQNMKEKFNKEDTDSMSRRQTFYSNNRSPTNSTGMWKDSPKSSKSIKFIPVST
MEASURE: IC50 (nM)

compound="Cc1cc(C(=O)N2Cc3cccn3Cc3ccccc32)ccc1C1=CCCc2ccccc21 [Example 3]" unit_abbrev=nM readout_value=432
compound="COc1cc(C2=CCCCC2)c(Cl)cc1C(=O)N1Cc2cccn2Cc2ccccc21 [Example 1]" unit_abbrev=nM readout_value=232
compound="CC1=C(c2ccc(C(=O)N3Cc4cccn4Cc4ccccc43)cc2)CCCC1 [Example 7]" unit_abbrev=nM readout_value=45.7
compound="O=C(c1ccc(C2=CCCCC2)cc1)N1Cc2cccn2Cc2ccccc21 [Example 15]" unit_abbrev=nM readout_value=35.3

---

inhibition at 0.1 µM by entry:
STUDY_TARGET: human oxytocin receptor (Homo sapiens, UniProt P30559)
Construct: host or cells: CHO cells, stably transfected (pcDNA3.1 vector); membranes
Sequence (P30559 1-389): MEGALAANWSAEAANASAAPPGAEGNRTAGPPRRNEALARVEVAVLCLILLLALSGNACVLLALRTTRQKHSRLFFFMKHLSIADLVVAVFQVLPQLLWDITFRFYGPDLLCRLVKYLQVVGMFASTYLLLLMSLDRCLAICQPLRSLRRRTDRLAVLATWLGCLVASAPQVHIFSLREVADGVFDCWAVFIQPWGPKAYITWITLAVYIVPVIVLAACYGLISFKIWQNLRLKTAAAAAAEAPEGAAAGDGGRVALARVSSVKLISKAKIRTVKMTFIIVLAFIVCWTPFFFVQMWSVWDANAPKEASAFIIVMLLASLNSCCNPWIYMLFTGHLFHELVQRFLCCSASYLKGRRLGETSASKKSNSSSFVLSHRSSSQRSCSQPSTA
ASSAY: Oxytocin binding in CHO cell membranes expressing human oxytocin receptors ([3H]oxytocin)
DETAILS: 100 nM, values without parentheses, read-out: OT % inhibition @ 100 nM
MEASURE: inhibition at 0.1 µM (%)

molecule=O=C(c1ccc(C2=CCCc3ccccc32)cc1)N1Cc2cccn2Cc2ccccc21 study_target="human oxytocin receptor (Homo sapiens, UniProt P30559)" measure="inhibition at 0.1 µM" unit_abbrev=% readout_value=80
molecule="CC1=C(c2ccc(C(=O)N3Cc4cccn4Cc4ccccc43)cc2C)CCCC1O (racemic)" study_target="human oxytocin receptor (Homo sapiens, UniProt P30559)" measure="inhibition at 0.1 µM" unit_abbrev=% readout_value=13
molecule=O=C1C=C(c2ccc(C(=O)N3Cc4cccn4Cc4ccccc43)cc2)CCC1 study_target="human oxytocin receptor (Homo sapiens, UniProt P30559)" measure="inhibition at 0.1 µM" unit_abbrev=% readout_value=70
molecule="CC1(C)C2CC=C(c3ccc(C(=O)N4Cc5cccn5Cc5ccccc54)cc3)C1C2 (centres unmarked)" study_target="human oxytocin receptor (Homo sapiens, UniProt P30559)" measure="inhibition at 0.1 µM" unit_abbrev=% readout_value=32
molecule=Cc1cc(C(=O)N2Cc3cccn3Cc3ccccc32)ccc1C1=CC(=O)CCC1 study_target="human oxytocin receptor (Homo sapiens, UniProt P30559)" measure="inhibition at 0.1 µM" unit_abbrev=% readout_value=76
molecule=CC1(C)CCCC=C1c1ccc(C(=O)N2Cc3cccn3Cc3ccccc32)cc1 study_target="human oxytocin receptor (Homo sapiens, UniProt P30559)" measure="inhibition at 0.1 µM" unit_abbrev=% readout_value=76
molecule=COc1cccc(C2=C(c3ccc(C(=O)N4Cc5cccn5Cc5ccccc54)cc3C)CCCC2)c1 study_target="human oxytocin receptor (Homo sapiens, UniProt P30559)" measure="inhibition at 0.1 µM" unit_abbrev=% readout_value=16
molecule="Cc1cc(C(=O)N2Cc3cccn3Cc3ccccc32)ccc1C1=CC(O)CCC1 (centres unmarked)" study_target="human oxytocin receptor (Homo sapiens, UniProt P30559)" measure="inhibition at 0.1 µM" unit_abbrev=% readout_value=63

---

STUDY_TARGET: human vasopressin V1a receptor subtype (Homo sapiens)
Construct: host or cells: CHO cells, stably transfected (pZeoSV vector for the Thibonnier cells); membranes
ASSAY: Vasopressin binding in CHO cell membranes expressing human vasopressin V1a subtype receptors ([3H]Manning ligand)
DETAILS: 100 nM, values without parentheses
Class met: inhibition at 0.1 µM at least 6%. Class not met: inhibition at 0.1 µM below 6%.

compound="Cc1cc(C(=O)N2Cc3cccn3Cc3ccccc32)ccc1C1=CCCCC1 [Example 2]" class_name=met
compound="CC1=C(c2ccc(C(=O)N3Cc4cccn4Cc4ccccc43)cc2C)CCCC1=O [Example 4]" class_name=met
compound="COc1cccc(C2=C(c3ccc(C(=O)N4Cc5cccn5Cc5ccccc54)cc3C)CCCC2)c1 [Example 38]" class_name="not met"
compound="COc1cc(C2=C(C)C(=O)CCC2)c(Cl)cc1C(=O)N1Cc2cccn2Cc2ccccc21 [Example 9]" class_name=met

---

Overview of recorded inhibition at 0.1 µM for various molecules
STUDY_TARGET: human vasopressin V1a receptor subtype (Homo sapiens)
Construct: host or cells: CHO cells, stably transfected (pZeoSV vector for the Thibonnier cells); membranes
ASSAY: Vasopressin binding in CHO cell membranes expressing human vasopressin V1a subtype receptors ([3H]Manning ligand)
DETAILS: 100 nM, values without parentheses
MEASURE: inhibition at 0.1 µM (%)

molecule="CC1=C(c2ccc(C(=O)N3Cc4cccn4Cc4ccccc43)c(Cl)c2)CCCC1O (centres unmarked) [Example 14]" unit_abbrev=% readout_value=10
molecule="Cc1cc(C(=O)N2Cc3cccn3Cc3ccccc32)ccc1C1=CCC2CCC1C2 (centres unmarked) [Example 35]" unit_abbrev=% readout_value=36
molecule="Cc1cc(C(=O)N2Cc3cccn3Cc3ccccc32)ccc1C1=CCC2CC1C2(C)C (centres unmarked) [Example 36]" unit_abbrev=% readout_value=11
molecule="Cc1cc(C(=O)N2Cc3cccn3Cc3ccccc32)ccc1C1=CC(C)(C)CC(C)(C)C1 [Example 37]" unit_abbrev=% readout_value=10
molecule="Cc1cc(C(=O)N2Cc3cccn3Cc3ccccc32)ccc1C1=CC(=O)CCC1 [Example 39]" unit_abbrev=% readout_value=48
molecule="Cc1cc(C(=O)N2Cc3cccn3Cc3ccccc32)ccc1C1=CCCCC1(C)C [Example 30]" unit_abbrev=% readout_value=18
molecule="CC1=C(c2ccc(C(=O)N3Cc4cccn4Cc4ccccc43)cc2)C(C)CCC1 (centres unmarked) [Example 19]" unit_abbrev=% readout_value=23
molecule="CC1=C(c2ccc(C(=O)N3Cc4cccn4Cc4ccccc43)cc2C)CCC[C@H]1O (single isomer, unassigned) [Example 41]" unit_abbrev=% readout_value=36
